System: Shigella
Test: Antibacterial activity tested against Shigella enteritidis
Format: functional
Measured MIC, listed per entry for reference.
Numbers only; they are read as µg/mL.

> print(dat)
                                   compound  test.readout  recorded.result
1  Nc1cc2c(=O)c(C(=O)O)cn(C3CC3)c2cc1N1CCCC1           MIC               16
2  Cc1c(N2CC(C)CC(C)C2)c(N)cc2c(=O)c(C(=O)O)cn(C3CC3)c12 (stereo unspecified)           MIC                2
3  Cc1c(N2C[C@@H](C)O[C@@H](C)C2)c(N)cc2c(=O)c(C(=O)O)cn(C3CC3)c12           MIC                1

[Q] Any idea what its MIC is? The compound is `CN1CCN(c2cc3c(cc2N)c(=O)c(C(=O)O)cn3C2CC2)CC1`
[A] 0.25

[Q] Would you kindly repeat that for `Cc1c(N2CCN(C)CC2)c(N)cc2c(=O)c(C(=O)O)cn(-c3ccc(F)cc3)c12` ?
[A] 16

[Q] Would you kindly repeat that for `Nc1cc2c(=O)c(C(=O)O)cn(C3CC3)c2cc1N1CCNCC1` ?
[A] 0.25

====

Test system: Escherichia coli
Assay: Antibacterial activity tested against Escherichia coli ISF 432
Format: functional
Labelling: MIC reported below 1 mg/L becomes Met; at or above becomes Not met.

These solved cases illustrate the format of a correct answer.
> print(dat)
                                   molecule  label.value
1  Cc1c(N2C[C@@H](C)O[C@@H](C)C2)c(N)cc2c(=O)c(C(=O)O)cn(C3CC3)c12          Met
2  Cc1c(N2CC(C)NC(C)C2)c(N)cc2c(=O)c(C(=O)O)cn(C3CC3)c12 (centres undefined)          Met
3  COc1ccc(-n2cc(C(=O)O)c(=O)c3cc(N)c(N4CCN(C)CC4)c(C)c32)cc1      Not met
4  CC1CN(c2cc3c(cc2N)c(=O)c(C(=O)O)cn3C2CC2)CCS1 (centres undefined)          Met
5  Cc1c(N2CCN(C)CC2)c(N)cc2c(=O)c(C(=O)O)cn(C3CC3)c12          Met

[Q] Decide: MIC of `Cc1c(N2CCCCC2)c([N+](=O)[O-])cc2c(=O)c(C(=O)O)cn(C3CC3)c12` strictly below 1 mg/L?
[A] Not met

[Q] Would you kindly repeat that for `Cc1c(N2CCc3ccccc3C2)c(N)cc2c(=O)c(C(=O)O)cn(C3CC3)c12` ?
[A] Met

[Q] Would you kindly repeat that for `Cc1c(N2CCc3ccccc3C2)c([N+](=O)[O-])cc2c(=O)c(C(=O)O)cn(C3CC3)c12` ?
[A] Not met

====

Tested on: Staphylococcus aureus
Experiment: Antibacterial activity against Staphylococcus aureus MPR 5
Format: functional
Labelling: MIC reported below 1 µg/mL becomes 1; at or above becomes 0.

These solved cases illustrate the format of a correct answer.
> print(dat)
                                   molecule            target.desc  label.value
1  CN1CCN(c2c(N)cc3c(=O)c(C(=O)O)cn(C4CC4)c3c2F)CC1  Staphylococcus aureus            0
2  Cc1c(N2CCN(C)CC2)c(N)cc2c(=O)c(C(=O)O)cn(-c3ccc(F)cc3)c12  Staphylococcus aureus            0
3  CC1CN(c2cc3c(cc2N)c(=O)c(C(=O)O)cn3C2CC2)CCN1 (stereo not given)  Staphylococcus aureus            0

Attention now turns to another entry.
[Q] Decide: MIC of `O=C(O)c1cn(C2CC2)c2cc(N3CCNCC3)c(F)cc2c1=O` strictly below 1 µg/mL?
[A] 1

Values were extracted from ChEMBL document CHEMBL1129660.
